Test system: SNB-75 CNS
testProtocol: NCI tumour cell line growth inhibition, 48 h; in the data active means GI50 below about 0.43 µM; inactive means the rest
Your answer must be one of the following: 1 = active, -1 = inactive

Prompt: Give the logged outcome of this assay for the following molecule: "COCCNc1ccc2c3c(cccc13)C(=O)N(CCN(C)C)C2=O"
Response: -1

Prompt: Give the logged outcome of this assay for the following molecule: "Clc1ccc(Nc2ccnc(N3CCN(c4ccnc5cc(Cl)ccc45)CC3)n2)cc1"
Response: -1

Prompt: Give the logged outcome of this assay for the following molecule: CC(C)(C)[Si](C)(C)OC1[C@@H](O[Si](C)(C)C(C)(C)C)[C@@H](CNC(=O)NC(=O)CF)O[C@H]1n1cnc2c(NC(=O)Nc3ccccc3)ncnc21 (some centres undefined)
Response: -1

Prompt: Give the logged outcome of this assay for the following molecule: NC1CCCCC1N.O=[Se]([O-])[O-].[Pt+4] (centres undefined)
Response: -1

As a next step, examine the molecule that follows.
Prompt: Give the logged outcome of this assay for the following molecule: "Cc1cc(Nc2ncc3c(n2)N(C)C(=O)N(c2cc(NC(=O)c4cccc(C(F)(F)F)c4)ccc2C)C3)n(C)n1"
Response: 1
